Parameter viability, T/C: see the listing below.
Tested on: 242566-281-R-J2-PDC complex spheroid viability;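 note: spheroids exposed to compounds for 7 days before readout; 100% = DMSO vehicle control wells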
Assay: Anticancer human tumor 242566-281-R-J2-PDC patient-derived pancreatic carcinoma cell line growth inhibition [CLK]
Conditions: second compound 0.316 µM; first compound 0.0316 µM; active compounds read low

# COMPOUND, QUANTITY UNIT, viability, T/C
data = [
    ("COC1C=CCC(C)C(C)S(=O)(=O)NC(=O)c2ccc3c(c2)N(CC2CCC21)CC1(CCCc2cc(Cl)ccc21)CO3 (stereo unspecified) + CN1CCN(c2cc(C(=O)Nc3cc4cc(-c5cnn(C)c5)ccc4cn3)ccn2)CC1", "%", 37.5),
    ("Cn1ncnc1[C@H]1c2n[nH]c(=O)c3cc(F)cc(c23)N[C@@H]1c1ccc(F)cc1 + CNC(=O)c1ccc(Nc2nc(OC3CCCC3)c3c(-c4ccc5nc(C)oc5c4)c[nH]c3n2)c(OC)c1", "%", 79.9),
    ("COC1C=CCC(C)C(C)S(=O)(=O)NC(=O)c2ccc3c(c2)N(CC2CCC21)CC1(CCCc2cc(Cl)ccc21)CO3 (stereo unspecified) + CNC(=O)c1ccc(Nc2nc(OC3CCCC3)c3c(-c4ccc5nc(C)oc5c4)c[nH]c3n2)c(OC)c1", "%", 84.9),
    ("Cn1ncnc1[C@H]1c2n[nH]c(=O)c3cc(F)cc(c23)N[C@@H]1c1ccc(F)cc1 + CN1CCN(c2cc(C(=O)Nc3cc4cc(-c5cnn(C)c5)ccc4cn3)ccn2)CC1", "%", 31.3),
    ("Nc1ccn(C2OC(CO)C(O)C2(F)F)c(=O)n1 (stereo unspecified) + CN1CCN(c2cc(C(=O)Nc3cc4cc(-c5cnn(C)c5)ccc4cn3)ccn2)CC1", "%", 23.9),
    ("CCCS(=O)(=O)Nc1ccc(F)c(C(=O)c2c[nH]c3ncc(-c4ccc(Cl)cc4)cc23)c1F + CN1CCN(c2cc(C(=O)Nc3cc4cc(-c5cnn(C)c5)ccc4cn3)ccn2)CC1", "%", 42.3),
    ("O=c1[nH]cc(F)c(=O)[nH]1 + CN1CCN(c2cc(C(=O)Nc3cc4cc(-c5cnn(C)c5)ccc4cn3)ccn2)CC1", "%", 38.5),
    ("COc1cccc2c1C(=O)c1c(O)c3c(c(O)c1C2=O)CC(O)(C(=O)CO)CC3OC1CC(N)C(O)C(C)O1 (stereo unspecified) + CNC(=O)c1ccc(Nc2nc(OC3CCCC3)c3c(-c4ccc5nc(C)oc5c4)c[nH]c3n2)c(OC)c1", "%", 80.4),
    ("C#Cc1c(F)ccc2cc(O)cc(-c3ncc4c(N5CC6CCC(C5)N6)nc(OCC56CCCN5CC(F)C6)nc4c3F)c12 (stereo unspecified) + CN1CCN(c2cc(C(=O)Nc3cc4cc(-c5cnn(C)c5)ccc4cn3)ccn2)CC1", "%", 18.4),
    ("O=C(c1cc(Cc2n[nH]c(=O)c3ccccc23)ccc1F)N1CCN(C(=O)C2CC2)CC1 + CN1CCN(c2cc(C(=O)Nc3cc4cc(-c5cnn(C)c5)ccc4cn3)ccn2)CC1", "%", 33.5),
    ("C=C(F)C(=O)N1CCN(c2nc(OCC3CCCN3C)nc3c2CCN(c2cccc4cccc(Cl)c24)C3)CC1CC#N (stereo unspecified) + CN1CCN(c2cc(C(=O)Nc3cc4cc(-c5cnn(C)c5)ccc4cn3)ccn2)CC1", "%", 42.9),
]
